Recorded values, source ChEMBL document CHEMBL5291721.

Form field: AC50 (one value per entry).
MEASUREMENT_TARGET: Gamma-aminobutyric acid receptor subunit alpha-1 (Rattus norvegicus); note: assay procedure not described here
Sequence (P62813 whole entry): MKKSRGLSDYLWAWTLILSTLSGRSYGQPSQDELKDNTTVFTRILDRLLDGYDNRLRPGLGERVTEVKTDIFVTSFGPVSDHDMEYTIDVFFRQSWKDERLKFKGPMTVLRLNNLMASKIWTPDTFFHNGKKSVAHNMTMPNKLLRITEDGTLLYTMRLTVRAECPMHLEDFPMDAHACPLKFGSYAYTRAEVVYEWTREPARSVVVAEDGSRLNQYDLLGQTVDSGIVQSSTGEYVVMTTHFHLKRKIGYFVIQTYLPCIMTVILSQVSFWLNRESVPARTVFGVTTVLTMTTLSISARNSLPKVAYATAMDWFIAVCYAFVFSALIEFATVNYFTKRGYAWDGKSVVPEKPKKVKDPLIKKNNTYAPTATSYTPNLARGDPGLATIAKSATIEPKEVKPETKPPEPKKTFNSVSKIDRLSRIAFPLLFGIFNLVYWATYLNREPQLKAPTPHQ
Assay type: functional

In the examples that follow, each entry is paired with its recorded AC50.
# COMPOUND, AC50
data = [
    ("COC(=O)[C@@H]1CC2=CC(=O)CC[C@]2(C)[C@@]23O[C@@H]2C[C@@]2(C)[C@@H](CC[C@@]24CCC(=O)O4)[C@H]13 [EPLERENONE]", "> 10 µM"),
    ("CN1CC[C@]23CCCC[C@H]2[C@H]1Cc1ccc(O)cc13 [LEVORPHANOL]", "> 10 µM"),
]

The value of AC50 measured for the compound CNC(=O)c1cc(Oc2ccc(NC(=O)Nc3ccc(Cl)c(C(F)(F)F)c3)cc2)ccn1 [SORAFENIB] turned out to be > 30 µM

The value of AC50 measured for the compound CCN(CC)CCOC(=O)c1ccc(N)cc1 [PROCAINE] turned out to be > 10 µM

The value of AC50 measured for the compound O=C(O)CCn1c2c(c3ccccc31)C[C@H](NS(=O)(=O)c1ccc(F)cc1)CC2 [RAMATROBAN] turned out to be > 10 µM

The value of AC50 measured for the compound CN1C(=O)COc2c(C(=O)NC3CN4CCC3CC4)cc(Cl)cc21 (stereo not given) [AZASETRON] turned out to be > 30 µM

The value of AC50 measured for the compound OCc1cc([C@@H](O)CNCCCCCCOCCOCc2c(Cl)cccc2Cl)ccc1O [VILANTEROL] turned out to be > 30 µM

The value of AC50 measured for the compound COc1ccc2c(c1)C(=O)N(CCc1ccc(S(=O)(=O)NC(=O)NC3CCCCC3)cc1)C(=O)C2(C)C [GLIQUIDONE] turned out to be > 30 µM

The value of AC50 measured for the compound O=C1CN=C(c2ccccc2)c2cc(Cl)ccc2N1CC(F)(F)F [HALAZEPAM] turned out to be 0.506 µM

The value of AC50 measured for the compound CCN1CCC[C@H]1CNC(=O)c1cc(S(N)(=O)=O)ccc1OC [LEVOSULPIRIDE] turned out to be > 10 µM

The value of AC50 measured for the compound C[C@]12CCC(=O)C=C1CC[C@@H]1[C@@H]2CC[C@@]2(C)[C@H]1CC[C@]2(C)O [METHYLTESTOSTERONE] turned out to be > 30 µM

The value of AC50 measured for the compound O=C(O)c1cc(-c2ccc(F)cc2F)ccc1O [DIFLUNISAL] turned out to be > 10 µM

The value of AC50 measured for the compound CC(=O)c1ccc2c(c1)N(CCCN1CCN(CCO)CC1)c1ccccc1S2 [ACETOPHENAZINE] turned out to be > 30 µM

The value of AC50 measured for the compound Cc1c(Cl)cccc1Nc1ccccc1C(=O)O [TOLFENAMIC ACID] turned out to be > 30 µM

The value of AC50 measured for the compound O=C1CCC(N2C(=O)c3ccccc3C2=O)C(=O)N1 (stereo not given) [THALIDOMIDE] turned out to be > 10 µM

The value of AC50 measured for the compound CC(C)C(=O)OCC(=O)[C@@]12O[C@H](C3CCCCC3)O[C@@H]1C[C@H]1[C@@H]3CCC4=CC(=O)C=C[C@]4(C)[C@H]3[C@@H](O)C[C@@]12C [CICLESONIDE] turned out to be > 10 µM

The value of AC50 measured for the compound COC(=O)N[C@H](C(=O)N[C@@H](Cc1ccccc1)[C@@H](O)CN(Cc1ccc(-c2ccccn2)cc1)NC(=O)[C@@H](NC(=O)OC)C(C)(C)C)C(C)(C)C [ATAZANAVIR] turned out to be > 10 µM
